Reported IC50 on Leucine-rich repeat serine/threonine-protein kinase 2 (Homo sapiens, UniProt Q5S007) for assorted molecules, compiled from publications.

These recorded examples may help you get a feel for the data.
INSERT INTO results (molecule, measured_on, result) VALUES
  ('Cc1cc(N2CCN(C)CC2)ccc1Nc1ncc(C(F)(F)F)c(NCCCNC(=O)C(C)(C)C)n1', 'Leucine-rich repeat serine/threonine-protein kinase 2 (Homo sapiens, UniProt Q5S007)', '100 to 300 nM'),
  ('Cc1nn(C2CCN(C(C)C)CC2)cc1Nc1ncc(C(F)(F)F)c(NCCCNC(=O)C2CCC2)n1', 'Leucine-rich repeat serine/threonine-protein kinase 2 (Homo sapiens, UniProt Q5S007)', '1 to 100 nM'),
  ('Cc1c(F)cccc1-c1ccc2nc(NC(=O)C3CC(F)C3)cn2c1 (stereo not shown)', 'Leucine-rich repeat serine/threonine-protein kinase 2 (Homo sapiens, UniProt Q5S007)', '101 to 1000 nM');

Now look at this one.
Item CNc1cc(Nc2ccc(S(=O)(=O)N3CCOCC3)cc2OC)nc2[nH]cc(C(F)(F)F)c12 has what recorded IC50?
301 to 1000 nM

* * *

pIC50: −log10 of the molar value.
// cross-source set; read-out = pIC50; system = Leucine-rich repeat serine/threonine-protein kinase 2 (Homo sapiens, UniProt Q5S007)

INSERT INTO measurements (molecule, measured_quantity, result) VALUES
  ('COCCNc1cc(Nc2ccc(C(=O)N3CCC(N4CCOCC4)CC3)c3c2OCC3)nc2[nH]cc(C(F)(F)F)c12', 'pIC50', '> 7.00'),
  ('CCCNc1cc(Nc2ccc(S(=O)(=O)N3CCOCC3)cc2OC)nc2[nH]cc(C#N)c12', 'pIC50', '> 7.00'),
  ('O=C(Nc1nc2ccc(F)cc2s1)c1ccc(N2CCOCC2)cc1', 'pIC50', 6.72),
  ('CCc1cc(N2CCN(C)C(=O)C2)ccc1Nc1ncc(C(F)(F)F)c(NCCCN2CCOCCC2=O)n1', 'pIC50', '6.52 to 7.00');

Parameter requested: pIC50. Apply to each item below.
1. COCCNc1cc(Nc2ccc(S(C)(=O)=O)cc2OC)nc2[nH]cc(C(F)(F)F)c12
2. CNc1cc(Nc2ccc(S(=O)(=O)N3CCC(N4C[C@H]5C[C@@H]4CO5)CC3)cc2OC)nc2[nH]cc(C(F)(F)F)c12

1. 6.52 to 7.00
2. > 7.00

Respectfully, I request pIC50 for each entry included below.
1. N#Cc1c[nH]c2nc(Nc3ccc(C(=O)N4CCC(N5CCOCC5)CC4)c4c3OCCO4)cc(NC3CCC3)c12
2. Cc1c(F)cccc1-c1ccc2nc(NC(=O)[C@@H]3C[C@H]3F)cn2c1 (stereo in doubt)

> 7.00
7.00 to 8.00

* * *

Let's look at some IC50 data for Leucine-rich repeat serine/threonine-protein kinase 2 (Homo sapiens, UniProt Q5S007) that I collected from the literature.

INSERT INTO assay_data (compound, result) VALUES
  ('COc1cc(-c2cnc(N)c(-c3cn(C(C)C)nn3)c2)ccc1CN1CCOCC1', '93 nM'),
  ('CCc1c2c(nn1[C@@H]1CCOC[C@H]1F)OCCCn1nc(Cl)c3cnc(nc31)N2 (single isomer, unassigned)', '4.9 nM'),
  ('Cc1nn(C2CN(CC(C)C)C2)cc1Nc1ncc(Cl)c(NCCCN2CCCCC2=O)n1', '> 600 nM'),
  ('Cc1c(F)cncc1-c1ccc2nc(NC(=O)[C@@H]3C[C@@H]3F)c(Cl)n2c1', '> 1000 nM');

Quick one: give me IC50 for each item below, same order please.
1. Cc1cc(N(C)C)ncc1-c1ccc2nc(NC(=O)[C@@H]3C[C@@H]3F)cn2c1
2. CCNc1cc(Nc2ccc(C(=O)N3CCOCC3)c3c2OCO3)nc2[nH]cc(C(F)(F)F)c12

1: > 1000 nM; 2: < 100 nM

Your task in this section: give IC50 for each listed record.
1. OCCN1CCN(c2cncc(-c3cnc4[nH]ccc4c3)n2)CC1
2. COc1cc(S(C)(=O)=O)ccc1Nc1cc(NCCS(C)(=O)=O)c2c(C#N)c[nH]c2n1

< 500 nM
< 100 nM

* * *

pIC50: −log10 of the molar value.
Compiled from multiple publications: pIC50 readings for Leucine-rich repeat serine/threonine-protein kinase 2 (Homo sapiens, UniProt Q5S007).

Take a look at these entries with their results.
INSERT INTO assay_data (chemical_structure, measured_quantity, result) VALUES
  ('CNc1cc(Nc2ccc(P3(=O)CCN(C4COC4)CC3)cc2OC)nc2[nH]cc(C(F)(F)F)c12', 'pIC50', '> 7.00'),
  ('CCc1c2c(nn1[C@H]1CC[C@H](OC)CC1)OCCCn1nc(Cl)c3cnc(nc31)N2', 'pIC50', 7.80);

Provide each entry's pIC50 from the list below.
1. Cc1cc(F)ncc1-c1ccc2nc(NC(=O)[C@@H]3C[C@@H]3F)cn2c1
2. Cc1ccncc1-c1ccc2nc(NC(=O)[C@@H]3C[C@@H]3F)cn2c1
3. COc1cc(S(C)(=O)=O)ccc1Nc1cc(C2CC2)c2c(C(F)(F)F)c[nH]c2n1

1. 7.00 to 8.00
2. 6.00 to 7.00
3. 6.00 to 6.52

Okay, here is my list. What is pIC50 for each of these?
1. CCCNc1cc(Nc2ccc(C(=O)N3CCC(N4CCOCC4)CC3)c3c2OCCO3)nc2[nH]cc(C#N)c12
2. CN1CCN(c2cc(C3CC3)c(Nc3ncc(C(F)(F)F)c(NCCCN4CCCCC4=O)n3)cc2F)CC1

["> 7.00", "7.00 to 9.00"]

* * *

pIC50: −log10 of the molar value.
Note to self: these molecules have pIC50 reported for Leucine-rich repeat serine/threonine-protein kinase 2 (Homo sapiens) in various publications.

INSERT INTO results (chemical_structure, result) VALUES
  ('COc1cc(P2(=O)CCN(C3COC3)CC2)ccc1Nc1cc(C2CC2)c2c(C(F)(F)F)c[nH]c2n1', '6.52 to 7.00'),
  ('Cc1c(F)cncc1-c1ccc2nc(NC(=O)[C@@H]3C[C@@H]3F)c(C)n2c1', '< 6.00'),
  ('CC(C)n1cc(-c2cc(-c3ccc(C(=O)N4CCOCC4)c(F)c3)cnc2N)nn1', 6.24);

List the reported pIC50 of each molecule below.
1. O=C(c1ccc(Nc2cc(C3CC3)c3c(C(F)(F)F)c[nH]c3n2)c2c1OCCO2)N1CCOCC1
2. COCCNc1cc(Nc2ccc(S(=O)(=O)N3CCC(N4CCOCC4)CC3)cc2OC)nc2[nH]cc(C(F)(F)F)c12

1: 6.00 to 6.52; 2: > 7.00

* * *

A compilation of pIC50 values for Leucine-rich repeat serine/threonine-protein kinase 2 (Homo sapiens, UniProt Q5S007) from the published literature.
pIC50: −log10 of the molar value.

INSERT INTO measurements (chemical_structure, measured_quantity, result) VALUES
  ('Cc1cc(N2C[C@H]3C[C@@H]2CO3)ccc1Nc1ncc(C(F)(F)F)c(NCCCN2CCOCCC2=O)n1', 'pIC50', '6.52 to 7.00'),
  ('Cc1cc(-c2ccnc3[nH]cc(C#N)c23)ccc1CN(C)C', 'pIC50', 6.26),
  ('Cc1cccc(Cl)c1-c1ccc2nc(NC(=O)[C@@H]3C[C@@H]3F)cn2c1', 'pIC50', '6.00 to 7.00'),
  ('CCc1cc(N2C[C@@H]3C[C@H]2CN3C)ccc1Nc1ncc(C(F)(F)F)c(NCCCN2CCOCCC2=O)n1', 'pIC50', '6.52 to 7.00'),
  ('CC(C)NCc1c(F)cccc1-c1ccc2nc(NC(=O)[C@@H]3C[C@@H]3F)cn2c1', 'pIC50', '< 6.00');

Okay, here is my list. What is pIC50 for each of these?
1. Cc1cc(N2CCOCC2)ncc1Nc1ncc(C(F)(F)F)c(NCCCNC(=O)C2CCC2)n1
2. Cc1c2c(nn1[C@H]1[C@@H]3COC[C@@H]31)OCCCn1nc(Cl)c3cnc(nc31)N2
3. O=C1COCCCN1CCCNc1nc(Nc2ccc(N3CCOCC3)cc2C2CC2)ncc1C(F)(F)F
4. Cc1nn(CCN2CCCC2)cc1Nc1ncc(Br)c(NCCCN2CCCCC2=O)n1
5. Cc1cc(N)ncc1-c1ccc2nc(NC(=O)[C@@H]3C[C@@H]3F)cn2c1
6. Clc1c[nH]c2ncc(-c3cncc(N4CCOCC4)n3)cc12
7. N#Cc1c[nH]c2nccc(-c3ccn(CN4CCOCC4)c3)c12
8. Cc1n[nH]c2ncc(-c3cncc(C(=O)N4CCCCC4)n3)cc12

1: 6.22 to 6.52; 2: 7.55; 3: 7.00 to 9.00; 4: < 6.22; 5: < 6.00; 6: > 6.30; 7: 5.41; 8: < 6.30

Go through the items and report each one's pIC50.
1. CNc1cc(Nc2ccc(C(=O)N3CCC(N4CCOCC4)CC3)c3c2OCC3)nc2[nH]cc(C(F)(F)F)c12
2. CN(C)c1cc(Nc2ccc(C(=O)N3CCC(N4CCOCC4)CC3)c3c2OCCO3)nc2[nH]cc(C(F)(F)F)c12
3. Cc1nn(C(C)(C)C(N)=O)cc1Nc1ncc(C(F)(F)F)c(NCCCN2CCOCCC2=O)n1
4. O=C(Nc1cn2cc(-c3cnccc3C(F)(F)F)ccc2n1)[C@@H]1C[C@@H]1F
5. Cc1n[nH]c2ncc(Nc3ccc(N4CCN(C)CC4)c(F)c3)cc12

1. > 7.00
2. > 7.00
3. 7.00 to 9.00
4. < 6.00
5. < 6.00
